- System: NCI-H358 cells (express KRas G12C), Phospho-ERK
- Procedure text: Cellular inhibition of KRas G12C: Phospho-ERK in NCI-H358 cells
- Format: cell-based
- Condition summary: Homo sapiens, NCI-H358, 3 h, pERK(Thr202/Tyr204) normalized with GAPDH; NCI-H358 cells; 3 hours; read-out: IC50
pIC50: −log10 of the molar value.
Measured quantity: pIC50

>>> result("C=CC(=O)N1CCN(c2nc(OC[C@@H]3CCCN3C)nc3c2CCN(c2cncc4ccccc24)C3)CC1CC#N (some centres unmarked)")
"6.00 to 10.00"

Return value of pIC50 for input "C=CC(=O)N1CCN(c2nc(OC[C@@H]3CCCN3C)nc3c2CCN(c2cccc(F)c2C)C3)C[C@@H]1CC#N" , no commentary.
6.00 to 10.00

Hello, please tell me recorded pIC50 for this one: "C=CC(=O)N1CCN(c2nc(OC[C@@H]3C[C@@H](F)CN3C)nc3c2CCN(c2cc(OC)cc4ccccc24)C3)CC1"
< 6.00

Complete the entry with pIC50 for "C=CC(=O)N1CCN(c2ncnc3c2CCN(c2cc(O)cc4ccccc24)C3)CC1"
< 6.00

Determine from records and report pIC50 for "C=CC(=O)N1CCN(c2nc(OC[C@@H]3CCNC3)nc3c2CCN(c2cc(O)cc4ccccc24)C3)CC1"
< 6.00
